These entries and their values trace back to the NIST ThermoML archive (doi:10.1021/acs.jced.6b00021).

- Condition Details: 353.15 K; 100 kPa; Liquid; Vibrating tube method
Assay Readout: mass density (kg/m3)
Please state the figure in kg/m3; there is no need to write the unit.

CCn1cc[n+](C)c1.O=S(=O)([O-])C(F)(F)F [1-ethyl-3-methylimidazolium trifluoromethanesulfonate]
1340.46
C[N+](C)(C)CCO.O=S(=O)([N-]S(=O)(=O)C(F)(F)F)C(F)(F)F [choline bis(trifluoromethylsulfonyl)imide]
1477.22
CCn1cc[n+](C)c1.N#C[B-](C#N)(C#N)C#N [1-ethyl-3-methylimidazolium tetracyanoborate]
994.2
CC1COC(=O)O1 (stereo not given)
1141.33

Please look at the following compound next.
Ask: What does the data say about its mass density? Entry: CCn1cc[n+](C)c1.CS(=O)(=O)[O-] [1-ethyl-3-methylimidazolium methanesulfonate]
Reply: 1205.26
